# measurement-target: ATP-sensitive potassium channels in vascular smooth muscles (Rattus norvegicus, UniProt Q63563)
# Construct: The aorta was cut into about 3-5 mm arterial rings and the vascular endothelium was scraped off; from tissue; host or cells: endothelium-removed aortic rings of male Wistar rats
# Sequence (Q63563 1-1545 isoform Q63563-2): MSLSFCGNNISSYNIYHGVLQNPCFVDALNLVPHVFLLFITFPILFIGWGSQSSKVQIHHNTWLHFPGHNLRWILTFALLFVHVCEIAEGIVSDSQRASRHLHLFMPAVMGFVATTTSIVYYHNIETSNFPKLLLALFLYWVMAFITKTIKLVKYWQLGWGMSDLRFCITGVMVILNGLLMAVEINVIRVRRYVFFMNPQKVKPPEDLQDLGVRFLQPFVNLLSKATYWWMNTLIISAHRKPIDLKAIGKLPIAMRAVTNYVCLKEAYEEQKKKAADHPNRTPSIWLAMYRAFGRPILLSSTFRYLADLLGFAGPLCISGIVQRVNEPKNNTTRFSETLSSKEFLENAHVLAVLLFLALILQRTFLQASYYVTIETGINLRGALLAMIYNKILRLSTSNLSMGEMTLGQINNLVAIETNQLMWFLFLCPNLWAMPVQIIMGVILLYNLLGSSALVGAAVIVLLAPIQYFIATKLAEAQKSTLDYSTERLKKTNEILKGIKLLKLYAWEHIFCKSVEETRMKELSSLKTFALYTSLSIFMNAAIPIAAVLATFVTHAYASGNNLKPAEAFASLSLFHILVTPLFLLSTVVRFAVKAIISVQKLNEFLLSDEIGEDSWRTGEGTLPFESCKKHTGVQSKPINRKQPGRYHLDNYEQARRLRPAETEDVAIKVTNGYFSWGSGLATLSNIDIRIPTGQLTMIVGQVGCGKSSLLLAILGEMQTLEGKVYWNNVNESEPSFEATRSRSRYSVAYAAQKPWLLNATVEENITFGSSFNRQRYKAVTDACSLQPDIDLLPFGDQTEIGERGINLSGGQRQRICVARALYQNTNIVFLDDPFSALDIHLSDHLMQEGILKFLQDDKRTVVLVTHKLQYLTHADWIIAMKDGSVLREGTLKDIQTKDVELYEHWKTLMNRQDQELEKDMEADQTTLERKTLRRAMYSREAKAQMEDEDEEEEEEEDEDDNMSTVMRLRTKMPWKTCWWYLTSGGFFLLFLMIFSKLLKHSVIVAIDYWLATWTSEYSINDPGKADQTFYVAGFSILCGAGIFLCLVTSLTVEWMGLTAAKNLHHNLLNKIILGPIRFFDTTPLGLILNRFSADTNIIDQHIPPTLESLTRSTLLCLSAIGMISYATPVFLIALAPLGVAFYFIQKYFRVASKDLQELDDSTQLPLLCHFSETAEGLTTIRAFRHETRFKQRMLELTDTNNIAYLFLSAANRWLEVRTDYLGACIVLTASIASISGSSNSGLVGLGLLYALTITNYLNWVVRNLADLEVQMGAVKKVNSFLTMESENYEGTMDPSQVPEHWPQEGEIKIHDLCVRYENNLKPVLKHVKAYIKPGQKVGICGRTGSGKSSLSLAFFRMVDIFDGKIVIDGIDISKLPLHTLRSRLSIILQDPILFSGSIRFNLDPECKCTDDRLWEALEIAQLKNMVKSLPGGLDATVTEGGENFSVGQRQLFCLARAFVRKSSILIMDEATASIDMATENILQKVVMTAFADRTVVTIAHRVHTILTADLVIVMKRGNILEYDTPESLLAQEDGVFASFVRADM
# Sequence (Q63664 whole entry partner): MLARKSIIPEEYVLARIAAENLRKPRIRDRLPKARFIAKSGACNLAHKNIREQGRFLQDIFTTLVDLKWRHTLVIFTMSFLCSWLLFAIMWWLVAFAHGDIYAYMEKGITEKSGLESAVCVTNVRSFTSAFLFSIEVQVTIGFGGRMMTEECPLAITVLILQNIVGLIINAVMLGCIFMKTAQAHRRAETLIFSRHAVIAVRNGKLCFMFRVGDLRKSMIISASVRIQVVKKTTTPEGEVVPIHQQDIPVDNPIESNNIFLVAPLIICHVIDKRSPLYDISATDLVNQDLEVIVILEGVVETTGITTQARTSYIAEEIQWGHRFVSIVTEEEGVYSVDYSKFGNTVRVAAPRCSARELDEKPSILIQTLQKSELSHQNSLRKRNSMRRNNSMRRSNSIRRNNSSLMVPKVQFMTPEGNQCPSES
# procedure-summary: Association and dissociation kinetics of [^3H]glibenclamide binding in aortic rings
# Design: species or system Wistar rat
# assay-context: [^3H]-glibenclamide 3 nM, 25° C.; drug M: compound 1 10^−4, pinacidil 10^−4, ATP 10^−2, ADP 10^−3, UDP 5 × 10^−3, Ade 10^−3; control 4.65 ± 0.37; means ± SD, n = 4~10
measured-quantity: Association kinetics kobs of [^3H]glibenclamide binding

compound | result
Nc1ncnc2c1ncn2[C@@H]1O[C@H](COP(=O)(O)OP(=O)(O)OP(=O)(O)O)[C@@H](O)[C@H]1O [ATP, adenosine triphosphate] | 7.69 ± 1.01 ×10^−2nM^−1 · min^−1
Nc1ncnc2c1ncn2[C@@H]1O[C@H](COP(=O)(O)OP(=O)(O)O)[C@@H](O)[C@H]1O [ADP] | 2.28 ± 0.70 ×10^−2nM^−1 · min^−1
CC(C)NC(C)(C)C(C)C [compound 1] | 2.90 ± 0.74 ×10^−2nM^−1 · min^−1
CC(N/C(=N\C#N)Nc1ccncc1)C(C)(C)C (centres unmarked) [pinacidil] | 2.32 ± 0.67 ×10^−2nM^−1 · min^−1
O=c1ccn([C@@H]2O[C@H](COP(=O)(O)OP(=O)(O)O)[C@@H](O)[C@H]2O)c(=O)[nH]1 [UDP] | 4.26 ± 0.65 ×10^−2nM^−1 · min^−1

---

# System: rats anesthetized with pentobarbital sodium
# procedure-summary: Effects on blood pressure, heart rate, cardiac contraction and dilation in rats anesthetized with pentobarbital sodium
# Assay type: in vivo, Wistar rats
# Set-up: unit not given here
# assay-context: change after injection through femoral vein; '+' = increase, all others = decrease; mean, n = 3~5; doses mg/kg: 2, 8, 12: 10; 3-7, 9-11, 40-44: 5
# reported SBP: systolic blood pressure; entries follow
measured-quantity: SBP: systolic blood pressure

compound | quantitative-readout
CCCCNC(C)(C)C(C)C | 61
CCC(C)(C)NC | 18
CCCNC(C)(C)C(C)C | 34
CCC(C)N (centres unmarked) [compound 10] | 2
CCNC(C)(C)C(C)C | 31
CC(C)NC(C)C(C)C (centres unmarked) | 34
CNC(C)C | 28
CCC(C)N (centres unmarked) [compound 12] | 25
CC(C)C(C)(C)N | 38
CNC(C)(C)C(C)C | 29

---

# measurement-target: ATP-sensitive potassium channels in vascular smooth muscles (Rattus norvegicus, UniProt Q63563)
# Construct: The aorta was cut into about 3-5 mm arterial rings and the vascular endothelium was scraped off; from tissue; host or cells: endothelium-removed aortic rings of male Wistar rats
# procedure-summary: Association and dissociation kinetics of [^3H]glibenclamide binding in aortic rings
# Design: species or system Wistar rat
# assay-context: [^3H]-glibenclamide 3 nM, 25° C.; drug M: compound 1 10^−4, pinacidil 10^−4, ATP 10^−2, ADP 10^−3, UDP 5 × 10^−3, Ade 10^−3; control 1.31 ± 0.14
measured-quantity: Association kinetics k1 of [^3H]glibenclamide binding

molecule | result
CC(N/C(=N\C#N)Nc1ccncc1)C(C)(C)C (centres unmarked) | 0.39 ± 0.24 ×10^−2nM^−1 · min^−1
Nc1ncnc2c1ncn2[C@@H]1O[C@H](COP(=O)(O)OP(=O)(O)O)[C@@H](O)[C@H]1O | 0.45 ± 0.24 ×10^−2nM^−1 · min^−1
O=c1ccn([C@@H]2O[C@H](COP(=O)(O)OP(=O)(O)O)[C@@H](O)[C@H]2O)c(=O)[nH]1 | 1.15 ± 0.23 ×10^−2nM^−1 · min^−1
CC(C)NC(C)(C)C(C)C | 0.62 ± 0.25 ×10^−2nM^−1 · min^−1
Nc1ncnc2c1ncn2[C@@H]1O[C@H](COP(=O)(O)OP(=O)(O)OP(=O)(O)O)[C@@H](O)[C@H]1O [ATP, adenosine triphosphate] | 2.42 ± 0.34 ×10^−2nM^−1 · min^−1

---

# reported Association kinetics kA of [^3H]glibenclamide binding; entries follow
# measurement-target: ATP-sensitive potassium channels in vascular smooth muscles (Rattus norvegicus, UniProt Q63563)
# Construct: The aorta was cut into about 3-5 mm arterial rings and the vascular endothelium was scraped off; from tissue; host or cells: endothelium-removed aortic rings of male Wistar rats
# procedure-summary: Association and dissociation kinetics of [^3H]glibenclamide binding in aortic rings
# Design: species or system Wistar rat
# assay-context: [^3H]-glibenclamide 3 nM, 25° C.; drug M: compound 1 10^−4, pinacidil 10^−4, ATP 10^−2, ADP 10^−3, UDP 5 × 10^−3, Ade 10^−3; control 181.90 ± 46.90
measured-quantity: Association kinetics kA of [^3H]glibenclamide binding

molecule | result
Nc1ncnc2c1ncn2[C@@H]1O[C@H](COP(=O)(O)OP(=O)(O)O)[C@@H](O)[C@H]1O | 47.80 ± 25.70 ×10^−2nM^−1 · min^−1
CC(C)NC(C)(C)C(C)C | 61.04 ± 25.89 ×10^−2nM^−1 · min^−1
O=c1ccn([C@@H]2O[C@H](COP(=O)(O)OP(=O)(O)O)[C@@H](O)[C@H]2O)c(=O)[nH]1 | 143.50 ± 49.00 ×10^−2nM^−1 · min^−1
Nc1ncnc2c1ncn2[C@@H]1O[C@H](COP(=O)(O)OP(=O)(O)OP(=O)(O)O)[C@@H](O)[C@H]1O [ATP, adenosine triphosphate] | 590.2 ± 208.20 ×10^−2nM^−1 · min^−1
CC(N/C(=N\C#N)Nc1ccncc1)C(C)(C)C (centres unmarked) | 33.91 ± 22.43 ×10^−2nM^−1 · min^−1

---

# reported Association kinetics kobs of [^3H]P1075 binding; entries follow
# measurement-target: ATP-sensitive potassium channels in vascular smooth muscles (Rattus norvegicus, UniProt Q63563)
# Construct: The aorta was cut into about 3-5 mm arterial rings and the vascular endothelium was scraped off; from tissue; host or cells: endothelium-removed aortic rings of male Wistar rats
# procedure-summary: Association kinetics of [^3H]P1075 binding in aortic rings
# Set-up: species or system Wistar rat
# assay-context: 37° C.; drug M: Compound 1 10^−4, Glibencamide 10^−5, ATP 10^−2, ADP 10^−3, UDP 5 × 10^−5, GTP 10^−3, Ade 10^−3; control 4.36 ± 0.45; means ± SD, n = 4~10
measured-quantity: Association kinetics kobs of [^3H]P1075 binding

molecule | result
COc1ccc(Cl)cc1C(=O)NCCc1ccc(S(=O)(=O)NC(=O)NC2CCCCC2)cc1 [glibenclamide, reference compound] | 3.12 ± 0.17 ×10^−2 nM^−1 · min^−1
Nc1ncnc2c1ncn2[C@@H]1O[C@H](COP(=O)(O)OP(=O)(O)O)[C@@H](O)[C@H]1O [ADP] | 2.63 ± 0.48 ×10^−2 nM^−1 · min^−1
CC(C)NC(C)(C)C(C)C [compound 1] | 2.44 ± 0.80 ×10^−2 nM^−1 · min^−1
Nc1ncnc2c1ncn2[C@@H]1O[C@H](COP(=O)(O)OP(=O)(O)OP(=O)(O)O)[C@@H](O)[C@H]1O [ATP, adenosine triphosphate] | 2.85 ± 0.08 ×10^−2 nM^−1 · min^−1
Nc1nc2c(ncn2[C@@H]2O[C@H](COP(=O)(O)OP(=O)(O)OP(=O)(O)O)[C@@H](O)[C@H]2O)c(=O)[nH]1 [GTP] | 3.86 ± 0.19 ×10^−2 nM^−1 · min^−1
O=c1ccn([C@@H]2O[C@H](COP(=O)(O)OP(=O)(O)O)[C@@H](O)[C@H]2O)c(=O)[nH]1 [UDP] | 5.53 ± 0.51 ×10^−2 nM^−1 · min^−1

---

# reported Dissociation kinetics Kd of [^3H]glibenclamide binding in presence of the drug; entries follow
# measurement-target: ATP-sensitive potassium channels in vascular smooth muscles (Rattus norvegicus)
# Construct: The aorta was cut into about 3-5 mm arterial rings and the vascular endothelium was scraped off; from tissue; host or cells: endothelium-removed aortic rings of male Wistar rats
# procedure-summary: Association and dissociation kinetics of [^3H]glibenclamide binding in aortic rings
# Set-up: species or system Wistar rat
# assay-context: Kd of the radioligand, not of the drug; drug M: compound 1 10^−4, pinacidil 10^−4, ATP 10^−2, ADP 10^−3, UDP 5 × 10^−3, Ade 10^−3; control 0.55 ± 0.14
measured-quantity: Dissociation kinetics Kd of [^3H]glibenclamide binding in presence of the drug (nM)

molecule | unit | quantitative-readout
CC(N/C(=N\C#N)Nc1ccncc1)C(C)(C)C (centres unmarked) | nM | 2.95
Nc1ncnc2c1ncn2[C@@H]1O[C@H](COP(=O)(O)OP(=O)(O)O)[C@@H](O)[C@H]1O | nM | 2.09
Nc1ncnc2c1ncn2[C@@H]1O[C@H](COP(=O)(O)OP(=O)(O)OP(=O)(O)O)[C@@H](O)[C@H]1O [ATP, adenosine triphosphate] | nM | 0.17
CC(C)NC(C)(C)C(C)C | nM | 1.64
O=c1ccn([C@@H]2O[C@H](COP(=O)(O)OP(=O)(O)O)[C@@H](O)[C@H]2O)c(=O)[nH]1 | nM | 0.70
